Values were extracted from PubChem BioAssay (NCI).

tested on: 786-0 renal; assay: NCI tumour cell line growth inhibition, 48 h
quantity: TGI

What does the record list as TGI for O=C(O)c1oc2cccc3c2c1CCC3 ? > 100 µM

What does the record list as TGI for C/C=C/C(=O)[O-].N.N.N.N.N.[Co+3].[O-][Cl+3]([O-])([O-])[O-] ? > 100 µM

What does the record list as TGI for C=C1C(=O)O[C@H]2[C@H]1CC/C(COC(=O)/C=C/c1c[nH]c3ccccc13)=C\CC[C@@]1(C)O[C@@H]21 ? 0.555 µM

----------
system: OVCAR-3 ovarian; experiment: NCI tumour cell line growth inhibition, 48 h
Exercise: state measured TGI for each of the compounds provided.

What does the record list as TGI for COC(=O)C1=C(c2cc(OC)c(OC)c(OC)c2)O[C@H](c2ccc3c(c2)OCO3)[C@H]1COC(C)=O ? > 100 µM

What does the record list as TGI for O=C(c1ccccc1)c1ccccc1C(=O)c1ccccc1 ? > 100 µM

What does the record list as TGI for CNC(C)Cc1ccc(O)cc1 (configuration not stated) ? > 100 µM

What does the record list as TGI for O=c1cccccc1NCCNc1cccccc1=O ? > 100 µM

What does the record list as TGI for COc1ccccc1N1C(=O)/C(=C\c2cccc(Oc3ccccc3)c2)S(=O)(=O)C1c1ccccc1 (configuration not stated) ? > 100 µM

What does the record list as TGI for Cc1cccc(C(O)c2cccnc2)c1O (configuration not stated) ? > 100 µM

What does the record list as TGI for N[C@H](C(=O)O)[C@@H](Cl)CC(=O)O ? > 100 µM

What does the record list as TGI for Cn1c(=O)c2sc3cc4c(cc3c2c2ccccc21)sc1c(=O)n(C)c2ccccc2c14 ? > 100 µM

What does the record list as TGI for CC1(C)O[C@@H](CP(c2cccc3ccccc23)c2cccc3ccccc23)[C@H](CP(c2cccc3ccccc23)c2cccc3ccccc23)O1 ? > 100 µM

What does the record list as TGI for Cn1c(=O)c2[nH]c(CCC(=O)O)nc2n(C)c1=O ? > 100 µM

What does the record list as TGI for CCN(CC)CCOc1nc2cc(OC)c(OC)cc2c2c1-c1ccc(OC)cc1C2=O ? 24 µM

What does the record list as TGI for N#Cc1c(-c2ccc(Cl)cc2)cc(-c2nc3ccccc3[nH]2)nc1N ? 41.8 µM

What does the record list as TGI for O=C(Nc1ccccc1C(=O)O)C(=O)C(C(=O)c1ccccc1-c1ccccc1)C1OC(=O)c2ccccc21 (configuration not stated) ? 34.3 µM

What does the record list as TGI for O=C1NC(O)CCN1C1CC(O)C(CO)O1 (configuration not stated) ? > 100 µM

What does the record list as TGI for CCC1CCC2c3c([nH]c4ccccc34)C3C(=O)N(c4ccc(OC)cc4)C(=O)C3C2C1 (configuration not stated) ? 41.9 µM

What does the record list as TGI for COc1cc(CC2CC(c3ccc4c(c3)OCO4)OC2=O)cc(OC)c1OC (configuration not stated) ? > 100 µM

What does the record list as TGI for Cc1nnc(CC#N)n1NC(=O)CC#N ? > 100 µM

What does the record list as TGI for CN(C)c1ccc(N=C(C#N)c2nc(N)nc(N3CCN(c4ccccc4)CC3)n2)cc1 ? > 50 µM

What does the record list as TGI for Cc1nn(-c2ccccn2)c2c1C(SC#N)=C(C=O)CC2 ? 26.5 µM

What does the record list as TGI for Cc1cc(Cl)ccc1NC(=O)NC(C)(C)COC(=O)Nc1cccc(Cl)c1 ? 12.7 µM

What does the record list as TGI for Cc1ccc2c(=O)c(C(=O)N(CCO)CCO)c[nH]c2n1 ? > 100 µM

What does the record list as TGI for COc1cc2c3c(c1OC)Oc1ccc(cc1)CC1c4c(cc(OC)c(OC)c4Oc4ccc(cc4)CC3N(C)CC2)CCN1C (configuration not stated) ? 44.7 µM

What does the record list as TGI for C[C@H]1CCC/C=C/[C@@H]2C[C@H](O)C[C@H]2[C@H](O)[C@@H](SC2OC(CO)C(O)C(O)C2O)CC(=O)O1 (some centres not stated) ? > 100 µM

What does the record list as TGI for O=C(NCCCCNCCCNC(=O)OCc1ccccc1)OCc1ccccc1 ? > 100 µM

What does the record list as TGI for CCOC(=O)N1C(=S)C(C(=O)OC)(C(=O)OC)N=C1C ? > 100 µM

What does the record list as TGI for Cc1[nH]n(-c2ccccc2)c(=O)c1C(=O)c1ccccc1 ? > 25 µM

What does the record list as TGI for CN(CCN(C)C(=O)CCn1ccc(=O)[nH]c1=O)C(=O)CCn1ccc(=O)[nH]c1=O ? > 100 µM
